Taken from patent US9029508.

- TESTED SYSTEM: HGF (human, UniProt P14210)
- Sequence (P14210 32-728): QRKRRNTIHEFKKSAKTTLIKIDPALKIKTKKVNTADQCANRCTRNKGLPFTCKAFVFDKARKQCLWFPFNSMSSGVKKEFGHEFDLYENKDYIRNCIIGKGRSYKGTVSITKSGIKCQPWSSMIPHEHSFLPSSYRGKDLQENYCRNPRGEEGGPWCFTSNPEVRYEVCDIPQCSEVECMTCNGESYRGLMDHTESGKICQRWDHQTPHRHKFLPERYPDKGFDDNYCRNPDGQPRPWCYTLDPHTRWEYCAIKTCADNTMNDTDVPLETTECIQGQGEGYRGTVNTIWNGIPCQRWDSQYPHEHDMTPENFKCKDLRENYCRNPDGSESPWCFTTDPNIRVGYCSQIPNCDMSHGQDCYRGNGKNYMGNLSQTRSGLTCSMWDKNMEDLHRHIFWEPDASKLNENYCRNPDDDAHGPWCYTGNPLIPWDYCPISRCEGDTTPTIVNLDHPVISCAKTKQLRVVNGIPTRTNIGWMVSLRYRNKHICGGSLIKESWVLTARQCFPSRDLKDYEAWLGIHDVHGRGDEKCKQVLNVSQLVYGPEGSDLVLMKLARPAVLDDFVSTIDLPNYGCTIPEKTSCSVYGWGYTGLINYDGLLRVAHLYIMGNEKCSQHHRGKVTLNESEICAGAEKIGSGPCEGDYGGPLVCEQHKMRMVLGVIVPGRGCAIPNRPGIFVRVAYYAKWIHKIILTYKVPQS
- ASSAY INFO: ELISA
PROPERTY MEASURED: pEC50
Just so you know, pEC50 here is -log10 of the concentration in molar units; reply with that number alone.

BINDER	pEC50
DVD046 HGF arm (antibody, V domains shown, DVD-Ig outer) VH: QVQLVESGGGLVKPGGSLRLSCAASGFTFSDYYMSWIRQAPGKGLEWVSYISSSGSTIYYADSVKGRFTISRDNAKNSLYLQMNSLRAEDTAVYYCARDEYNSGWYVLFDYWGQGTLVTVSS VL: DIQMTQSPSSVSASVGDRVTITCRASQGISSWLAWYQQKPGKAPNLLIYEASSLQSGVPSRFGGSGSGTDFTLTISSLQPEDFATYYCQQANGFPWTFGQGTKVEIKR	9.30
DVD026 HGF arm (antibody, V domains shown, DVD-Ig outer) VH: QVQLVESGGGLVKPGGSLRLSCAASGFTFSDYYMSWIRQAPGKGLEWVSYISSSGSTIYYADSVKGRFTISRDNAKNSLYLQMNSLRAEDTAVYYCARDEYNSGWYVLFDYWGQGTLVTVSS VL: DIQMTQSPSSVSASVGDRVTITCRASQGISSWLAWYQQKPGKAPNLLIYEASSLQSGVPSRFGGSGSGTDFTLTISSLQPEDFATYYCQQANGFPWTFGQGTKVEIKR	9.48
DVD033 HGF arm (antibody, V domains shown, DVD-Ig inner) VH: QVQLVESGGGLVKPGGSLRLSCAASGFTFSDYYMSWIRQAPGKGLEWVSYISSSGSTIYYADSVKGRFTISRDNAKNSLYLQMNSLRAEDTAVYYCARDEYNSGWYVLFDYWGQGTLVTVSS VL: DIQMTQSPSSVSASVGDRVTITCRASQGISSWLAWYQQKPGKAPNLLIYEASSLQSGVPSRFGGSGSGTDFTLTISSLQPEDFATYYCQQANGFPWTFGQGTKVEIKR	7.92
DVD045 HGF arm (antibody, V domains shown, DVD-Ig inner) VH: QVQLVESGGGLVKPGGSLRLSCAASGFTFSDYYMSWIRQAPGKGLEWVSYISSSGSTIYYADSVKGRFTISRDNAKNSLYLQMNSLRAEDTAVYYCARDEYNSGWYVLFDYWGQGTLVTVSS VL: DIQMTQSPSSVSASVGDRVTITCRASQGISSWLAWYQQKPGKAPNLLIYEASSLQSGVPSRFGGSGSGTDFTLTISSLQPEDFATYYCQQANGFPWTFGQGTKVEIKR	6.73
DVD025 HGF arm (antibody, V domains shown, DVD-Ig inner) VH: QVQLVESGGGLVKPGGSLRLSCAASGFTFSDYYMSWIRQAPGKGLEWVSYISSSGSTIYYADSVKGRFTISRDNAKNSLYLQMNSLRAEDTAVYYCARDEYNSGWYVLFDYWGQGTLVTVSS VL: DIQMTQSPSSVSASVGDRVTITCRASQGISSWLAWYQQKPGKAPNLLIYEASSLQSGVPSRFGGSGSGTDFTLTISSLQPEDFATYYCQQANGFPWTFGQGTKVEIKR	6.60

Proceeding to the next binder to report its pEC50.
Asked: State the recorded pEC50 for this entry: DVD034 HGF arm (antibody, V domains shown, DVD-Ig outer) VH: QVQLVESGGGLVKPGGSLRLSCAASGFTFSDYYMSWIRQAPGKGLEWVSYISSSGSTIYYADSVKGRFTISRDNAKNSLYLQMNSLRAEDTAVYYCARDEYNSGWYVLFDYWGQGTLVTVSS VL: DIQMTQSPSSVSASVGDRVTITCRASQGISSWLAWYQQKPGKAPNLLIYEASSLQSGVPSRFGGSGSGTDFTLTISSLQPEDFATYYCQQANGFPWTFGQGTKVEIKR
Given back: 9.57
